The reported measurements were obtained from PubChem BioAssay AID600.

- ASSAYED TARGET: Steroidogenic factor 1 (Homo sapiens) (UniProt Q13285)
- Sequence (Q13285 whole entry, looked up, the tested form may be a part): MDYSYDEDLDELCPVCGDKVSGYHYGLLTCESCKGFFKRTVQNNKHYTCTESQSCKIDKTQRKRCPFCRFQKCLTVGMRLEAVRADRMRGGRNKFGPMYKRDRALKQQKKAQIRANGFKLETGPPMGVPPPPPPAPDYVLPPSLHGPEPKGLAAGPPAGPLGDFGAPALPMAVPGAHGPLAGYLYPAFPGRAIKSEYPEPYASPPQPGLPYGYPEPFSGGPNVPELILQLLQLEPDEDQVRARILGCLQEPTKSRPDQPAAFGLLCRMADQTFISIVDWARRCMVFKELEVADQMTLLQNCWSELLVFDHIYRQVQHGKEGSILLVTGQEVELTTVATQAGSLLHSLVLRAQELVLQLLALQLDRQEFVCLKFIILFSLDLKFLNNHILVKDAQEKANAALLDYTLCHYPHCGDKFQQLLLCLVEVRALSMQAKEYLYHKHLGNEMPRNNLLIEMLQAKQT
- EXPERIMENTAL DETAILS: SF-1 inhibitor potency, dose response, cell-based, CHO-K1, Gal4-SF-1 LBD, luciferase luminescence (AID 600)
- SETTINGS: CHO-K1 Gal4-SF-1 LBD luciferase reporter
The source made the active and inactive calls.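 The calls were made as follows: active = IC50 at or below 10 micromolar; inactive = IC50 above 10 micromolar.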
Pick one and only one: Yes for active, No for inactive

Consider the worked cases shown below.
1. CN(C)c1ccc2c(c1)OC(N)=C(C#N)C2c1cccc(F)c1 (configuration not stated)	No
2. CCOC(=O)C1=C(Cn2cnc3ccccc32)NC(=O)NC1c1cc(C)ccc1C (configuration not stated)	No
3. COc1cc(C2C(C#N)=C(N)Oc3cc(N)ccc32)cc(OC)c1OC (configuration not stated)	Yes

**Q:** Hello, I am checking results. What call was entered for `N#CC1=C(N)C(C#N)(C#N)[C@H](c2ccncc2)[C@H]2CN(C(=O)OCc3ccccc3)CC=C12` ?
**A:** No

**Q:** Hello, I am checking results. What call was entered for `CCOc1ccccc1-n1c(SCC(=O)Nc2ccc(CC)cc2)nc2n[nH]c(C)c2c1=N` ?
**A:** Yes

**Q:** Hello, I am checking results. What call was entered for `CN(C)c1ccc(N/C=C/C(=O)c2ccccc2)cc1` ?
**A:** No

**Q:** Hello, I am checking results. What call was entered for COC(=O)c1ccc(N2C(=O)CC(N3CCC(n4c(=O)[nH]c5ccccc54)CC3)C2=O)cc1 (configuration not stated) ?
**A:** No

---

Examples of molecules with documented IC50 follow.
- ASSAYED TARGET: Steroidogenic factor 1 (Homo sapiens) (UniProt Q13285)
- EXPERIMENTAL DETAILS: SF-1 inhibitor potency, dose response, cell-based, CHO-K1, Gal4-SF-1 LBD, luciferase luminescence (AID 600)
- SETTINGS: CHO-K1 Gal4-SF-1 LBD luciferase reporter
Activity calls are given as the source filed them.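 Rule for the calls: active = IC50 at or below 10 micromolar; inactive = IC50 above 10 micromolar.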

1) COc1cc(C2C(C#N)=C(N)Oc3cc(N(C)C)ccc32)cc2c1OCO2 (stereo unspecified)	> 3670 nM (inactive)

**Q:** Given the entry `COc1cc(/C=N/O)ccc1OCc1ccc(C(=O)O)cc1` , report its measured IC50.
**A:** 1160 nM

**Q:** Given the entry `O=C(/C=C\Nc1cccc(F)c1)c1ccc2c(c1)OCO2` , report its measured IC50.
**A:** 4650 nM

**Q:** Given the entry `Cc1ccc(C(=O)/C=C/Nc2ccccn2)cc1` , report its measured IC50.
**A:** > 11000 nM (inactive)

**Q:** Given the entry `O=S(=O)(c1ccc2c(c1)C(=NO)c1cc(S(=O)(=O)N3CCCCC3)ccc1-2)N1CCCCC1` , report its measured IC50.
**A:** 1510 nM
